- System: NCI-H23 lung
- method_summary: NCI tumour cell line growth inhibition, 48 h
Answer each item with its documented TGI.

[in] Name the reported TGI value associated with the compound CC#C[C@]1(O)CC[C@H]2[C@@H]3CCC4=CC(=O)CCC4=C3[C@@H](c3ccc4c(c3)OCO4)C[C@@]21C
[out] > 1000 µM

[in] Endpoint output: TGI of CC(=O)OCC1OC(OC2C(CSC3OC(COC(C)=O)C(OC(C)=O)C(OC(C)=O)C3OC(C)=O)OC(OC(C)=O)C(OC(C)=O)C2OC(C)=O)C(OC(C)=O)C(OC(C)=O)C1OC(C)=O (centres undefined) . Value?
[out] > 100 µM

[in] # input compound: O=C(/C=C/c1csc(-c2ccccc2)n1)NCc1ccc(C(=O)NCCc2ccccc2)cc1 ; wanted: its TGI
[out] > 100 µM

[in] Item under review: COc1ccc(-c2c3c(N)nc(-c4ccncc4)nc3nc3c2c(C)nn3-c2ccccc2)cc1 . Reported TGI?
[out] > 100 µM

---

So I've got a bunch of compounds here, and I need their TGI values.
- Tested on: PC-3 prostate
- method_summary: NCI tumour cell line growth inhibition, 48 h

[in] Could you tell me which TGI is on file for O=C1c2ccccc2S(=O)(=O)c2c1cccc2[N+](=O)[O-] ?
[out] > 9.02 µM

[in] Find the recorded TGI belonging to CC(NNC(=O)c1ccncc1)c1ccc(F)cc1 (centres undefined) and report it.
[out] > 100 µM

[in] # lookup: TGI of O=CC(=C(I)I)c1ccccc1
[out] 13.7 µM

[in] Bench note: what TGI did O=C1C=C2C(=NC34CCCCC3C(c3ccccc3)C3=C(c5ccccc5CC3)N24)c2ccccc21 (centres undefined) show?
[out] > 10 µM

[in] Given the compound CCOC(=O)c1c(N)sc2c1C(C(=O)OCC)CC2 (centres undefined) , what is its reported TGI?
[out] > 100 µM

[in] Returns the measured TGI for the input compound. Input: O=[N+]([O-])c1ccc(-c2nnc(C34CC5CC(CC(C5)C3)C4)o2)cc1
[out] > 100 µM

[in] Returns the measured TGI for the input compound. Input: CCC1NC(=O)C1NC(=O)OC (centres undefined)
[out] > 100 µM

[in] Returns the measured TGI for the input compound. Input: COc1ccc(-c2c3c(N)nc(-c4ccncc4)nc3nc3c2c(C)nn3-c2ccccc2)cc1
[out] > 100 µM

[in] Please report the recorded TGI for [N-]=[N+]=Nc1c(C=O)c(=O)n2c3c(cccc13)CCC2 .
[out] 27.2 µM

[in] Which TGI value belongs to CC(=O)N1C(=O)/C(=C\C(=O)c2ccc([N+](=O)[O-])cc2)c2ccccc21 ?
[out] 58.4 µM

[in] Given CCCC1(NC(=O)C(F)(F)F)CC(OC)OC2COC(c3ccccc3)OC21 (centres undefined) , state its recorded TGI.
[out] > 100 µM

[in] Form field: reported TGI of O=C(NCCO)Nc1ccc(-c2nc(N3CCOCC3)c3cccn3n2)cc1
[out] > 100 µM

[in] Entry COc1ccc(/C=C2\CCCC3=C2N=C2SC(C)=NN2C3c2ccc(OC)c(OC)c2)cc1OC (centres undefined) : reported TGI = ?
[out] > 100 µM

[in] Record request: TGI value, item CN1CCC(n2cnc(-c3ccc(F)cc3)c2-c2ccnc(NCCO)n2)CC1
[out] > 25 µM

[in] Give the measured TGI of O=C(N/N=C(/c1ccccc1)C(F)(F)F)c1ccncc1 .
[out] > 100 µM

[in] Look up TGI: C=CCOc1ccc(/C(N=Nc2ccc([N+](=O)[O-])cc2)=N/NC(=O)c2ccccc2)cc1OC
[out] > 100 µM

[in] Which measured TGI value corresponds to CCN(CC)CCCNc1nc(=O)[nH]c(C)c1C(=O)Nc1cccc2cc3ccccc3cc12 ?
[out] > 100 µM

[in] Which value of TGI has been reported for Cc1ccc(C2=Nc3cccc4cccc(c34)N2)cc1 in the records?
[out] > 100 µM

[in] Entry under review: NC(=O)N/N=C1\CCCCc2ccccc21 . Reported TGI?
[out] > 10 µM

[in] What measured TGI goes with COc1cc(C2CC(c3ccc4c(c3)OCO4)=NN2C=O)cc(OC)c1OC (centres undefined) ?
[out] > 100 µM

[in] Any idea what its TGI is? The compound is O=C1c2cccnc2C(=O)c2nc3cc(N4CCN(C5CC5)CC4)ccc3nc21
[out] 23.2 µM

[in] Quick one: TGI of O=c1c2nn3c(=O)n(-c4ccccc4)c(=O)c3nn2c(=O)n1-c1ccccc1 ?
[out] > 100 µM

[in] Fill in: TGI of O=C(Cc1ccccc1)NNc1nc(NNC(=O)c2ccncc2)nc(Nc2ccc([N+](=O)[O-])cc2)n1 is ___
[out] > 10 µM

[in] Report TGI for CC#C[C@]1(O)CC[C@H]2[C@@H]3CCC4=CC(=O)CCC4=C3[C@@H](c3ccc4c(c3)OCO4)C[C@@]21C please.
[out] 340 µM

---

- Tested on: K-562 leukemia
- method_summary: NCI tumour cell line growth inhibition, 48 h
What TGI was measured for each of the following?

[in] Please state recorded TGI (tested on K-562 leukemia) of CCOC(=O)c1ccc(N=C2C(=S)N(c3ccc(C(=O)OCC)cc3)C(=N)N2/N=C/c2ccccc2)cc1
[out] > 100 µM

[in] Provide value of TGI for this record tested with K-562 leukemia: COc1cc(Cn2c3ccccc3c3cc(C)c4c(c32)C=CC(C)(CCC=C(C)C)O4)cc2c1[nH]c1ccccc12 (configuration not stated)
[out] > 100 µM

[in] Find TGI (K-562 leukemia) for the entry CC1=Nc2ccccc2S/C1=C(/C)NNC(=O)C(N)=O
[out] > 100 µM

[in] API: value(readout=TGI, system=K-562 leukemia) for record CCCNC(=O)c1cc(NC(=O)c2cc(NC(=O)/C=C/c3ccccc3)c(OC)c(OC)c2)c(OC)c(OC)c1
[out] > 100 µM

[in] Requested read-out TGI, target or system K-562 leukemia, entry COc1cc(C2C(C(=O)O)=C(CO)Oc3cc4c(cc32)OCO4)cc(OC)c1O (configuration not stated)
[out] > 100 µM

[in] Give K-562 leukemia TGI for O=C(NCCO)Nc1ccc(-c2nc(N3CCOCC3)c3cccn3n2)cc1
[out] > 100 µM

[in] Enter reported TGI observed with K-562 leukemia for Cc1nc2cccc(F)c2c(=O)n1C1CCCCNC1=O (configuration not stated)
[out] > 10 µM

[in] Given the entry COc1ccc(/C(C#N)=C/c2ccccc2OC)cc1 , what TGI was observed with K-562 leukemia?
[out] > 100 µM

[in] // fetch K-562 leukemia TGI for Oc1cccc2ccc(N/N=C/c3cc(CN4CCCCC4)c(O)c4ncccc34)nc12
[out] 11.1 µM

[in] Lab note: need TGI with K-562 leukemia for entry O=c1/c(=C/c2ccccc2F)sc2nc3ccccc3n12 , please look it up.
[out] > 100 µM

[in] So what TGI did CCS(=O)(=O)Nc1ccc(Nc2c3ccccc3nc3ccccc23)c(OC)c1 get with K-562 leukemia?
[out] 14.6 µM

[in] Form field - read-out: TGI; system: K-562 leukemia; submitted item: CC(=O)N1C(=O)/C(=C\C(=O)c2ccc([N+](=O)[O-])cc2)c2ccccc21
[out] 36.5 µM

[in] Kindly state the measured TGI obtained for Cc1ccc(NC(=O)C(=O)C(C#N)c2ccccc2C)cc1C (configuration not stated) with K-562 leukemia.
[out] > 70.1 µM

[in] Fill in the recorded TGI for this compound, with K-562 leukemia as test system: CC(=O)Nc1cc([As](=O)(O)O)ccc1O
[out] > 100 µM

[in] Form: Entry = CCN(CC)CSc1nc2ccccc2s1 | System = K-562 leukemia | TGI = ____
[out] > 100 µM

[in] Short answer please: TGI, K-562 leukemia, entry Cn1cnc(CCc2ccccc2)n1
[out] > 100 µM

[in] API: value(readout= TGI, system= K-562 leukemia, query= COc1ccc(/C=C2\NC(=S)N(CN3CCCCC3)C2=O)cc1 )
[out] > 100 µM

[in] # returns recorded TGI (system: K-562 leukemia) for CN(C)CC(=O)Nc1ccc(Cn2nnc3c2C(=O)c2nnn(Cc4ccc(NC(=O)CN(C)C)cc4)c2C3=O)cc1
[out] > 100 µM

[in] Find TGI (K-562 leukemia) for the entry O=C1C(Cl)=C(OCCCCl)C(=O)c2c(O)ccc(O)c21
[out] 1.7 µM

[in] Form field: TGI recorded for O=C(CN1CCOCC1)Nc1nc(-c2ccc(Cl)cc2)cs1 with K-562 leukemia (enter value)
[out] 94.5 µM

[in] Item: O=C(CCCN1CCC2(CC1)OC(=O)N(c1ccccc1)C2=O)c1ccccc1 Test system: K-562 leukemia Read-out: TGI Value: ?
[out] > 100 µM

[in] State its TGI on K-562 leukemia: NC(=O)N/N=C1\CCCCc2ccccc21
[out] > 10 µM

[in] Under K-562 leukemia: TGI value of COC12OC3(C4OC41)C(C(=O)O[C@H]3CO[Si](C)(C)C(C)(C)C)C2C(=O)Oc1ccccc1 (some centres not stated) ?
[out] > 100 µM

[in] Please tell me: TGI of CCCCCCCCN=C(N)c1ccc(N2CCN(c3ccc(C(N)=NCCCCCCCC)cc3)CC2)cc1 , system K-562 leukemia?
[out] > 50 µM

[in] Lab request: please report TGI under test system K-562 leukemia for C#CCOCn1cnc2c(Cl)ncnc21
[out] > 100 µM

[in] Recall the recorded TGI for CCSCCC(N)C(=O)O (configuration not stated) with K-562 leukemia and state it.
[out] > 100 µM

[in] Which measured TGI belongs to COc1cc(/C=C/C(=O)c2ccc(NS(=O)(=O)c3cc([N+](=O)[O-])ccc3C)cc2)cc(OC)c1OC , tested on K-562 leukemia?
[out] 10.9 µM
